- test-method-notes: Human HepG2 cell viability assay in 384 well format
- Type: toxicity, cell-based
- Parameters: dose 125 nL, time 70.5 hour; concentration not given beside the values
- assay-context: HepG2 cells, read-out: Inhibition
attribute-measured: cytotoxicity at 70.5 h (%)

molecule	unit-of-measurement	result-number
CNc1nc(C)c(C(=O)N2CCCCC2CCN2CCOCC2)s1 (centres undefined)	%	-0.313
Cn1ccnc1-c1noc(NCc2ccc3c(c2)OCCO3)n1	%	8.69
Cc1ccc(C(=O)N2CCc3ccc(=O)n(CCN(C)C)c3CC2)o1	%	-4.04
Cn1ccnc(Nc2ccc3c(c2)CCN3C(=O)c2cccnc2)c1=O	%	-11.5

All figures here come from ChEMBL document CHEMBL3507680.
